Target: T1, biotinylated goat anti-human kappa light chain
T1 construct: positive control of the ELISA
Assay: ELISA, positive control; also: test concentration or dose not given here
recorded_metric: optical density (OD)

binder	experimental_value
370_B01 (antibody, V domains shown, Group I) VH: EVQLLESGGGLVQPGGSLRLSCAASGFTFDDYGMHWVRQAPGKGLEWVSGINYNGGYKSYADSVKGRFTISRDNSKNTLYLQMNSLRAEDTAVYYCARAANWHDTALDYWGQGTLVTVSS VL: DIQMTQSPSSLSASVGDRVTITCRASQSILSYVNWYQQKPGKAPKLLIYVASSRASGVPSRFSGSGSGTDFTLTISSLQPEDFATYYCQQSYSLPLTFGGGTKVEIK	3.75
371_B11 (antibody, V domains shown, Group II) VH: EVQLLESGGGLVQPGGSLRLSCAASGFTFSSYSMHWVRQAPGKGLEWVASINYNSGYTSYADSVKGRFTISRDNSKNTLYLQMNSLRAEDTAVYYCARAATWHDTHLDYWGQGTLVTVSS VL: DIQMTQSPSSLSASVGDRVTITCRASQSILTYLNWYQQKPGKAPKLLIYAATSRASGVPSRFSGSGSGTDFTLTISSLQPEDFATYYCQQSYELPLTFGGGTKVEIK	3.59
367_G11 (antibody, V domains shown, Group II) VH: EVQLLESGGGLVQPGGSLRLSCAASGFTFSSYGMHWVRQAPGKGLEWVASINYNGGYTSYADSVKGRFTISRDNSKNTLYLQMNSLRAEDTAVYYCARAATWHDTHLDYWGQGTLVTVSS VL: DIQMTQSPSSLSASVGDRVTITCRASQSILTYLNWYQQKPGKAPKLLIYAATSRHSGVPSRFSGSGSGTDFTLTISSLQPEDFATYYCQQSDDSPLTFGGGTKVEIK	3.56

Where do these numbers come from? They come from patent US20210380703A1.
